B1: Segment polarity protein dishevelled homolog DVL-3, residues 2 to 81; numbered along this chain, Q92997 (parent)
chain: GETKIIYHLDGQETPYLVKLPLPAERVTLADFKGVLQRPSYKFFFKSMDDDFGVVKEEISDDNAKLPCFNGRVVSWLVSA

variants of: B1; experiment: abundance fitness (aPCA) (normalised: wild type 0, dead -1); higher = more abundant; growth selection in yeast, the domain comes from the species named; conditions: Homo sapiens
Kindly supply the reported abundance fitness values for the records listed here.
Give bare numbers.

Reference set, count: 3
- macromolecule.sequence: "GETKIIYHLDGQETPYLVKLPLPAERVTLADFKGVLQCPSYKFFFKSMDDDFGVVKEEISDDNAKLPCFNGRVVSWLVSA [R38C]"
  readout.value: 0.139
- macromolecule.sequence: "GETKIIYHLDGQETPYLVKLPLMAERVTLADFKGVLQRPSYKFFFKSMDDDFGVVKEEISDDNAKLPCFNGRVVSWLVSA [P23M]"
  readout.value: -0.972
- macromolecule.sequence: "GETKIIYHLDGQETPYLVKLPLPAERVTLADFKGVLQRPFYKFFFKSMDDDFGVVKEEISDDNAKLPCFNGRVVSWLVSA [S40F]"
  readout.value: -0.157

Working through the 3 variants below one at a time, give abundance fitness for each.
1. GETKIIYHLDGQETPYLVKLPLPAERVTLADFKGVLQRPSYKFQFKSMDDDFGVVKEEISDDNAKLPCFNGRVVSWLVSA [F44Q]
2. GETKIIYHLDGQETPYLVKLPLPAERVTLADFKGVLQRPSYKFFFKSMDDDFGVVKEEISDDNAKLWCFNGRVVSWLVSA [P67W]
3. GETKIIYHLDGQETPYLVKLPLPAERVTLADFKGVLQRPSYKFFFKWMDDDFGVVKEEISDDNAKLPCFNGRVVSWLVSA [S47W]

-0.745
-1.01
-0.519

Working through the 7 variants below one at a time, give abundance fitness for each.
1. GETKIIYHLDGQETPYLVKLQLPAERVTLADFKGVLQRPSYKFFFKSMDDDFGVVKEEISDDNAKLPCFNGRVVSWLVSA [P21Q]
2. GETKIIYHLDGQETPYLVKLPLPAERVTLADFKGVLQRPSYKFFLKSMDDDFGVVKEEISDDNAKLPCFNGRVVSWLVSA [F45L]
3. GETKIIYHLDGQETPYLVKLPLPAERVTLADFKGVLQRPSYKFFFKSMDDDFGVVKETISDDNAKLPCFNGRVVSWLVSA [E58T]
4. GETKIIYHLDGQETPYLVKLPLPAERVTAADFKGVLQRPSYKFFFKSMDDDFGVVKEEISDDNAKLPCFNGRVVSWLVSA [L29A]
5. GETKIIYHLDGQETPYLVKLPLPAERVTLADFKGVLQDPSYKFFFKSMDDDFGVVKEEISDDNAKLPCFNGRVVSWLVSA [R38D]
6. GETKIIYHLDGQETPYLVKSPLPAERVTLADFKGVLQRPSYKFFFKSMDDDFGVVKEEISDDNAKLPCFNGRVVSWLVSA [L20S]
7. GETKIIYHLDGQETPYLVKLPLPAERVTLADFKGVLQRPSYKFFFKSMDDDFGVVKEEIDDDNAKLPCFNGRVVSWLVSA [S60D]

[-0.269, -0.775, -0.456, -0.639, 0.284, -0.664, -0.32]

Working through the 2 variants below one at a time, give abundance fitness for each.
1. GETKIIYHLDGQETPYLVKLPLPAERVTLADFKGVLQRPSTKFFFKSMDDDFGVVKEEISDDNAKLPCFNGRVVSWLVSA [Y41T]
2. GETKIIYHLDGQETPYLVKLPLPAERVTLADFKGVLQRPSYKFFFKSMDDDFGVVKEEGSDDNAKLPCFNGRVVSWLVSA [I59G]

[-0.511, -0.696]

Working through the 4 variants below one at a time, give abundance fitness for each.
1. GETKIIYHLDGQETPYLVKLPLPAERVTLADFKGVLQRPSYKFFFKSMDDDFWVVKEEISDDNAKLPCFNGRVVSWLVSA [G53W]
2. GETKIIYHLDGQETPYLVKLPLPAERVTLADFKGVLQTPSYKFFFKSMDDDFGVVKEEISDDNAKLPCFNGRVVSWLVSA [R38T]
3. GETKIIYHLDGQETPYLVKLPLPAERVTLADFKGVLQRPSYKFFFKSMDDDFGVVKEEISDDNAKLPCFNGCVVSWLVSA [R72C]
4. GETKIIYHLDGQETPYLVKLPLPAERVTLADFKGVLQRPSDKFFFKSMDDDFGVVKEEISDDNAKLPCFNGRVVSWLVSA [Y41D]

1: -0.458; 2: 0.187; 3: 0.222; 4: -0.673
